# Tested on: HT29 colon
# testName: NCI tumour cell line growth inhibition, 48 h; in the data active = GI50 below about 0.43 µM; inactive = the rest
Choose one outcome from this list and give only that: active, inactive

cpdSmiles	answerLabel
O=C(c1ccco1)c1nc2cc(C(F)(F)F)ccc2[n+]([O-])c1C(F)(F)F	inactive
COc1ccc2c(c1)[nH]c(=O)c1c3cc(OC)c(OC)cc3cn21	active
COc1cnc2c(c1)C(=O)c1c-2n(CCCNCCN2CCOCC2)c(=O)c2cc([N+](=O)[O-])ccc12	active
OCCn1cc(-c2cnc3nnn(Cc4ccc5ncccc5c4)c3n2)cn1	inactive
CCOC(=O)Cn1c(-c2nonc2NC(=O)c2ccccc2F)nc2ccccc21	inactive
Clc1ccc2nc(Cl)c3ccccc3c2c1	inactive
O=C(Cc1csc2nc(-c3ccc(Br)cc3)cn12)N/N=C/c1ccc(Cl)cc1Cl	inactive
CN(C)c1ccc(Nc2c3ccccc3nc3cc(NC(=O)CCN4CCCC4)ccc23)cc1	inactive

Which outcome was assigned to CCSc1ccc([C@@H]2[C@@H](N)C(=O)N2c2cc(OC)c(OC)c(OC)c2)cc1 in this test?
active

Which outcome was assigned to O=C(Oc1ccccc1Cl)c1ccccc1Nc1cccc(C(F)(F)F)c1 in this test?
inactive

###

# System: RXF 393 renal
# testName: NCI tumour cell line growth inhibition, 48 h
Reported TGI is given for each of the following molecules.

molecule	TGI
OCCn1cc(-c2cnc3nnn(Cc4ccc5ncccc5c4)c3n2)cn1	> 100 µM
OC(C1CCCCCCCCCC1)C(O)C1CCCCCCCCCC1 (centres undefined)	> 100 µM
COc1ccccc1NC(=O)C1=C(C)NC(C)=C(C(=O)Nc2ccccc2OC)C1c1cccc2ccccc12	> 100 µM
CC(=O)N1C(Nc2cccc3nc(C)ccc23)CCN1c1ccccc1 (centres undefined)	> 10 µM
O=C(Cc1csc2nc(-c3ccc(Br)cc3)cn12)N/N=C/c1ccc(Cl)cc1Cl	85.1 µM
O=C1C=C(O)c2c(O)ccc(O)c2C1=O	> 100 µM

Now turn to the next molecule.
Form field: reported TGI of COc1ccc(N=Nc2c(-c3ccccc3)nn(C(=O)CC(=O)Nc3ccccc3Cl)c2-c2ccccc2)cc1
> 100 µM

###

# Test system: UO-31 renal
# testName: NCI tumour cell line growth inhibition, 48 h
Reported TGI is given for each of the following compounds.

The following compounds have reported results that may help.
compound	targetSystem	experimentalValue
CC1(C)CN=CC(C)(OCc2ccccc2)C(=O)NC(C)(C)CN=CC(C)(OCc2ccccc2)C(=O)N1 (stereo not given)	UO-31 renal	> 10 µM
COc1cc(O)cc(O)c1C(=O)CC(Cl)(Cl)Cl	UO-31 renal	> 100 µM

Form field: reported TGI of S=C(N/N=C(\C(=N/NC(=S)N1CCCCC1)c1ccccn1)c1ccccn1)N1CCCCC1
> 100 µM

Form field: reported TGI of CCCCCCCCCCCCCCCC(=O)OCC1OC(OC)C(NC(=O)N(CCCl)N=O)C(O)C1O (stereo not given)
48.9 µM

Form field: reported TGI of CC1=NN(C(=O)Cc2ccccc2)C(=O)/C1=C\c1ccccc1O
> 100 µM

###

Reported GI50 is given for each of the following compounds.
# Test system: T-47D breast
# testName: NCI tumour cell line growth inhibition, 48 h

The following compounds have reported results that may help.
cpdSmiles	experimentalValue
Oc1ccc(Oc2cnc3cc(Cl)ccc3n2)cc1	32.8 µM
NC(=O)c1sc(-n2cnc3ccc(C(F)(F)F)cc32)cc1OCc1ccccc1Br	2.59 µM
Fc1ccc([C@@H]2CCNC[C@H]2COc2ccc3c(c2)OCO3)cc1	5.53 µM

Now turn to the next compound.
I'm curious: which GI50 was measured for CCOC(=O)c1ccc(N(C=O)CCC(=O)CCl)cc1 tested on T-47D breast?
1.16 µM

###

Reported TGI is given for each of the following molecules.
# Tested on: KM12 colon
# testName: NCI tumour cell line growth inhibition, 48 h

The following molecules have reported results that may help.
cpdSmiles	TGI
CC(C)C[CH2][Ge]([CH2]CC(C)C)([CH2]CC(C)C)[CH2]CC(C)C	> 100 µM
S=C(N/N=C(\C(=N/NC(=S)N1CCCCC1)c1ccccn1)c1ccccn1)N1CCCCC1	> 100 µM
Oc1ccc(Oc2cnc3cc(Cl)ccc3n2)cc1	> 100 µM

Now turn to the next molecule.
I'm curious: which TGI was measured for COc1ccc(N2N=NN(C(C)C)/C2=C(/Cl)c2nnnn2-c2ccc(OC)cc2)cc1 tested on KM12 colon?
31.3 µM

###

# System: MOLT-4 leukemia
# testName: NCI tumour cell line growth inhibition, 48 h; in the data active = GI50 below about 0.43 µM; inactive = the rest
Choose one outcome from this list and give only that: Y (active), N (inactive)

cpdSmiles	answerLabel
O=C(c1ccco1)c1nc2cc(C(F)(F)F)ccc2[n+]([O-])c1C(F)(F)F	N

Which outcome was assigned to O=C1NC(=O)[C@@H](c2c[nH]c3ccccc23)[C@@H]1c1c[nH]c2ccccc12 in this test?
N

Which outcome was assigned to CN1CCN(c2ccc3nc(-c4[nH]ncc4Nc4ncnc5c4OCCCN5)[nH]c3c2)CC1 in this test?
Y

Which outcome was assigned to COc1ccc(-n2cc(-c3cc(OC)c(OC)c(OC)c3)[nH]c2=S)cc1Cl in this test?
N

###

# Test system: OVCAR-3 ovarian
# testName: NCI tumour cell line growth inhibition, 48 h
Reported TGI is given for each of the following molecules.
Expressed in µM, but write only the number.

cpdSmiles	measurementName	experimentalValue
C[C@]12CC[C@H](O)CC1=CC[C@@H]1[C@@H]2CC[C@]2(C)C(=O)/C(=C/c3ccc([N+](=O)[O-])cc3)C[C@@H]12	TGI	33.8

Form field: reported TGI of O=C(c1ccccc1)c1c(C(F)(F)F)n([O-])c2cc(F)c(F)cc2[n+]1=O
1.16

###

# Test system: HT29 colon
# testName: NCI tumour cell line growth inhibition, 48 h
measurementName: TGI

The following molecules have reported results that may help.
molecule	TGI
CC(C)C[CH2][Ge]([CH2]CC(C)C)([CH2]CC(C)C)[CH2]CC(C)C	> 100 µM
O=C(/C=C/c1ccccc1)Oc1cccc(Br)c1	> 100 µM
Cc1ccc(/C=C/C(=O)c2ccc([N+](=O)[O-])cc2)cc1	> 100 µM
Cc1cn([C@@H]2C[C@H](CO)[C@@H]2O)c(=O)[nH]c1=O	> 100 µM
Cc1ccc(NC(=O)/C(=N/NC(=O)C[N+](C)(C)C)c2nc3ccccc3[nH]c2=O)cc1	> 100 µM

Form field: reported TGI of CCCCCCCCCCCC1=NC(C)(C)CN1CC(C)O (stereo unspecified)
2.86 µM

###

# Tested on: HOP-62 NSCLC
# testName: NCI tumour cell line growth inhibition, 48 h
Reported TGI is given for each of the following compounds.

compound	TGI
CCOc1ccc(NCC2CC/C(=C\c3ccc(Cl)cc3)C2=O)cc1 (configuration not stated)	> 100 µM
COc1ccc(CCCN2c3ccccc3Sc3ccccc32)cc1	> 100 µM
COC1=CC(=O)c2nc3ccccc3c3ccnc1c23	> 44.8 µM

Now turn to the next compound.
Form field: reported TGI of CC(C)=CCC[C@@H](C)C1=CC(=O)C(C)=C(O)C1=O
25.7 µM

###

Reported TGI is given for each of the following compounds.
# Tested on: OVCAR-4 ovarian
# testName: NCI tumour cell line growth inhibition, 48 h

The following compounds have reported results that may help.
compound	measurementName	experimentalValue
COc1ccc(N2C(=O)C3c4[nH]c5ccccc5c4C4c5ccccc5CC4C3C2=O)cc1 (centres undefined)	TGI	> 100 µM
O=C(Nc1ccc(Oc2ccc(NC(=O)Nc3ccc([N+](=O)[O-])cc3)cc2)cc1)Nc1ccc([N+](=O)[O-])cc1	TGI	> 100 µM

Form field: reported TGI of COc1ccccc1NC(=O)C1=C(C)NC(C)=C(C(=O)Nc2ccccc2OC)C1c1cccc2ccccc12
41.5 µM

###

# Tested on: MCF7 breast
# testName: NCI tumour cell line growth inhibition, 48 h; in the data active means GI50 below about 0.43 µM; inactive means the rest
Choose one outcome from this list and give only that: active, inactive

For orientation, consider the following solved cases.
compound	answerLabel
COc1ccc(-c2nc(-c3ccccn3)c(-c3ccccn3)n2CC(C)C)cc1OC1CCCC1	inactive
COc1cnc2c(c1)C(=O)c1c-2n(CCCNCCN2CCOCC2)c(=O)c2cc([N+](=O)[O-])ccc12	active
O=c1c2c(=NCCN3CCCC3)cc3c(=O)n(CCCN4CCOCC4)c(=O)c4ccc(c(O)n1CCCN1CCOCC1)c2c4-3	active
C=C(C)[C@@H]1CC[C@]2(C(=O)O)CC[C@]3(C)[C@H](CC[C@@H]4[C@@]5(C)C/C(=C/c6cccc(I)c6)C(=O)C(C)(C)[C@@H]5CC[C@]43C)[C@@H]12	inactive
CCOC(=O)c1ccccc1SC(C[N+](=O)[O-])c1ccccc1 (centres undefined)	inactive
CN(C)c1ccc(Nc2c3ccccc3nc3cc(NC(=O)CCN4CCCC4)ccc23)cc1	active
COc1ccc(-c2nnc(SCC(=O)Nc3ccc(C(=O)/C=C/c4cc(OC)c(OC)c(OC)c4)cc3)n2-c2ccccc2)cc1OC	active
O=C1NC(=O)[C@@H](c2c[nH]c3ccccc23)[C@@H]1c1c[nH]c2ccccc12	inactive

Which outcome was assigned to CNC(=O)c1cc(Oc2ccc3nc(N[C@@H]4CCCC[C@H]4O)sc3c2)ccn1 in this test?
inactive
